Reported composite z-score is given for each of the following compounds.
Assay: compounds binding Alexa647 anti-His antibody – biochemical, small-molecule microarray, 635 nm fluorescence, artefact control for SMM control protein annotation, primary screen (AID 1128);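 also: score merges feature fluorescence with signal-to-noise for each printed compound spot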
Settings: higher = more signal
API doc: respond with a numeric literal and nothing else, no unit.

Sample answers from the record:
compound: CC(c1ccccc1)C(O)C1C=CC2C(=O)N(C)C(=O)C2N1NC(=O)OC(C)(C)C (stereo not drawn)
composite z-score: 0.79
--
compound: O=C(CS)NCCCCCNC(=O)[C@H]1C[C@H]2C(=O)NCC(=O)N2[C@H]1c1cccc(OCCO)c1
composite z-score: -0.0298
--
compound: N#Cc1ccc(C(O)C2C=CC3C(=O)N(c4ccccc4)C(=O)C3N2Nc2ccccc2F)cc1 (stereo not drawn)
composite z-score: 2.59
--
compound: [N-]=[N+]=NCc1ccccc1[C@@H]1OC(c2ccc(OCCCO)cc2)=N[C@]1(CCS(=O)(=O)c1ccccc1)C(=O)N1CCOCC1
composite z-score: 3.06
--
compound: O=C(NC1CC1)[C@@H]1c2ccccc2C(=O)N(C2Cc3ccccc3C2)[C@H]1c1ccc(CO)cc1
composite z-score: 2.65
--
compound: O=C1NC(=O)C2C1C=CC(C(O)c1ccc(I)cc1)N2Nc1ccccn1 (stereo not drawn)
composite z-score: 2.1
--
compound: CCOC(=O)C1=CC[C@@H](c2ccccc2)N(S(=O)(=O)c2ccc(C)cc2)[C@H]1c1ccc(CC)cc1
composite z-score: 1.09

Okay, now this compound:
Per the record, `COCCCNC(=O)[C@@]1(Cc2ccccc2)N=C(c2ccc(OCCCO)cc2)O[C@H]1c1ccccc1CN=[N+]=[N-]` has composite z-score of 2.82
